The reported numbers originate from ChEMBL document CHEMBL4330067.

- Test system: Klebsiella pneumoniae
- Experimental protocol: Antibacterial activity against Klebsiella pneumoniae ATCC 700603 after 24 hrs by broth dilution assay
- Format: functional
- Measurement setup: Klebsiella pneumoniae, 700603, 24 h
Provide the reported MIC of each item.
# unit: µg/mL | format: bare number

Q) What reported MIC corresponds to COC(=O)[C@@H](C)NC(=O)/C(O)=C/C(=O)c1ccccc1C on Klebsiella pneumoniae?
A) 1000

Q) Form field - read-out: MIC; system: Klebsiella pneumoniae; submitted item: CCOC(=O)/C(O)=C/C(=O)c1ccccc1C
A) 1000

Q) Param readout= MIC; system= Klebsiella pneumoniae; entry= CCOC(=O)c1cc(-c2ccc(Cl)cc2)no1 ; returns value.
A) 1000

Q) Requested read-out MIC, target or system Klebsiella pneumoniae, entry CCOC(=O)/C(O)=C/C(=O)c1oc2ccc(Br)cc2c1C
A) 500

Q) Requested read-out MIC, target or system Klebsiella pneumoniae, entry Cc1c(C(=O)/C=C(\O)C(=O)O)oc2ccc(Br)cc12
A) 1000

Q) Identify the measured MIC of Cc1ccccc1C(=O)/C=C(\O)C(=O)O for Klebsiella pneumoniae.
A) 1000
